molecular target: GABAA receptor (rat brain cortical membranes, [35S]-TBPS binding); settings: Table I-4; rat brain cortical membranes, 3 nM [35S]-TBPS, in the presence of 5 mM GABA
pIC50: −log10 of the molar value.
I'd be grateful if you could share measured pIC50 for these entries.

# molecule, result
records = [
    ("C[C@@]1(O)CC[C@H]2[C@H](CC[C@@H]3[C@@H]2CC[C@]2(C)[C@@H](Nc4cccc(Cl)c4)CCC[C@@H]32)C1", "7.00 to 8.00"),
]

Your task in this section: give pIC50 for each listed record.
1. C[C@@H]1CC[C@H]2[C@@H]3CC[C@@H]4C[C@](C)(O)CC[C@@H]4[C@H]3CC[C@]2(C)C1=O
2. C[C@]12CC[C@H]3[C@@H](CC[C@@H]4C[C@H](O)CC[C@@H]43)[C@@H]1CC[C@H](C(=O)Nc1ccccc1)C2 (single isomer, unassigned)
3. CN(C[C@H]1CCC[C@H]2[C@@H]3CC[C@@H]4C[C@](C)(O)CC[C@@H]4[C@H]3CC[C@]12C)C(=O)c1ccccc1
4. CN(C[C@H]1CCC[C@H]2[C@@H]3CC[C@@H]4C[C@](C)(O)CC[C@@H]4[C@H]3CC[C@]12C)S(=O)(=O)c1ccccc1
5. COC[C@@]1(O)CC[C@H]2[C@@H](CC[C@@H]3[C@@H]2CC[C@]2(C)[C@@H](C(=O)NCc4ccccc4)CCC[C@@H]32)C1

Given back:
["5.00 to 6.00", "5.00 to 6.00", "6.00 to 7.00", "7.00 to 8.00", "7.00 to 8.00"]

Hi team, please reply with pIC50 for each item in this list.
1. CCN(CC)C(=O)[C@H]1CCC[C@H]2[C@@H]3CC[C@@H]4C[C@](C)(O)CC[C@@H]4[C@H]3CC[C@]12C
2. C[C@@]1(O)CC[C@H]2[C@H](CC[C@@H]3[C@@H]2CC[C@]2(C)[C@@H](Nc4cccc(C#N)c4)CCC[C@@H]32)C1

Given back:
1: 5.00 to 6.00; 2: 7.00 to 8.00
